tested on: SN12C renal; assay: NCI tumour cell line growth inhibition, 48 h
Everything with TGI lower than 30 µM is no; everything else, including exactly 30 µM, is yes.

>>> label_class("Cc1cccc(C(C)(C)C)c1NC(=O)CC1Sc2ccccc2NC1=O (stereo not given)")
"yes"
>>> label_class("COc1ccc(CCNCCCC2c3ccccc3-c3ccccc32)cc1OC")
"no"
>>> label_class("C=C(C)C12CC3CC/C(=N/O)C(C1)C3(N1CCOCC1)C/C2=N/O (stereo not given)")
"yes"
>>> label_class("COc1cc(/C=C/C(=O)c2cccnc2Nc2ccc(F)cc2)cc(OC)c1OC")
"yes"
>>> label_class("CCc1n[nH]c(=O)n1CCO")
"yes"
>>> label_class("CC1=NN=C(N)NC1=CC(Sc1ccc(Cl)cc1)c1c(O)ccc2ccccc12 (stereo not given)")
"yes"
>>> label_class("O=C1NCCS(=O)(=O)/C1=C\\C=C\\c1cccc(C(F)(F)F)c1")
"no"
>>> label_class("CSc1cccc(NC(=O)OC2CCCCCCCCCCC2)c1")
"yes"
